- Test system: Klebsiella pneumoniae
- Protocol text: Growth inhibition assay for Gram-negative bacteria
- Type: cell-based
- Settings: Klebsiella pneumoniae, ATCC43816; ATCC 43816; mean ± SD
Readout: IC50 (nM)
Form entry: value (nM) — number only.

In plain terms, O=CN(O)CCCP(=O)(O)O [FSM, fosmidomycin] has a documented IC50 of 810

###

- System: Shigella sonnei
- Protocol text: microbe, parasite or virus in culture
- Assay type: cell-based
- Settings: mean ± SD
Readout: IC50 (nM)
Respond numerically; units are nM and should not be typed.

Just so you know, measured IC50 for "O=CN(O)CCCP(=O)(O)O" came out at 1160
